# Read-out: Epidermal growth factor receptor (EGFR), EGFR (gene 1956)
# Test protocol: BSK_hDFCGF_EGFR: BioMAP Diversity Plus: hDFCGF Assay for Epidermal growth factor receptor (EGFR) Biomarker Activity (AID 2283057)
# Details: primary human foreskin fibroblasts; actives raise or lower the signal
Activity calls are given as the source filed them. The calls were made as follows: active = hit-call score of the fitted dose curve at least 0.9, where 1 is the maximum; inactive = score below 0.9.
Outcomes: Y for active, N for inactive

1) Cc1ccc(C(C)C)cc1; N
2) Cc1cc2c(cc1C(F)(F)F)N(C(=O)Nc1ccc(Oc3cccnc3C)nc1)CC2; N
3) CC[C@H](NC(=O)c1cc(F)ccc1NS(=O)(=O)c1cccc2cccnc12)c1ccccc1; N
4) CCCCCCCC[Si](OCC)(OCC)OCC; N
5) CC1(C)NC(=O)N(c2ccc([N+](=O)[O-])c(C(F)(F)F)c2)C1=O; N
6) O=C(Nc1ccc(Cl)cc1)Nc1ccc(Cl)c(Cl)c1; Y
7) CCCCCCCCCCCC[N+](C)(C)C; N
8) Oc1ccccc1; N
9) CN(C)C(=O)C1(N2CCCCC2)CCN(CC[C@@]2(c3ccc(Cl)c(Cl)c3)CN(C(=O)c3ccccc3)CCO2)CC1; Y
10) CCN(Cc1cccc(S(=O)(=O)O)c1)c1ccc(C(=C2C=CC(=[N+](CC)Cc3cccc(S(=O)(=O)O)c3)C=C2)c2ccccc2S(=O)(=O)[O-])cc1; N
11) COc1ccc2cc(S(=O)(=O)N[C@H](CC(=O)N[C@H](Cc3ccc(CN4[C@H](C)CCC[C@@H]4C)cc3)C(=O)N(C)C(C)C)c3ccc4c(c3)OCO4)ccc2c1; N
12) C[C@]12CC[C@@H]3c4ccc(O)cc4CC[C@H]3[C@@H]1CCC2=O; N
13) O=C1c2ccccc2C(=O)N1CCc1noc(-c2ccc(CN3CCCCCC3)s2)n1; N
14) Oc1ccc2ccccc2c1; N

---

# Test protocol: CCTE_Shafer_MEA_acute_cross_correlation_area: CCTE's Neural Acute Assay for Area of Cross Correlation, Shafer Lab (AID 2284024);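 also: rat primary cortical neuron networks on 48-well MEA at DIV 13 or 15 with 40 min exposure; area under pooled inter-electrode spike cross-correlation near zero lag as percent change from own baseline; curves fitted for loss of cross-correlation area so actives lower synchrony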
The source made the active and inactive calls. How the source made its calls: active means hit-call score of the fitted dose curve at least 0.9, where 1 is the maximum; inactive means score below 0.9.
Measured metric: outcome

1. CN(C[C@@H](CC[N+]12CCC(C3CCCCC3)(CC1)CC2)c1ccc(Cl)c(Cl)c1)C(=O)c1cc(C(F)(F)F)cc(C(F)(F)F)c1; inactive
2. Cc1cc2c(cc1C(F)(F)F)N(C(=O)Nc1ccc(Oc3cccnc3C)nc1)CC2; inactive
3. Cc1cn([C@H]2C[C@H](N=[N+]=[N-])[C@@H](CO)O2)c(=O)[nH]c1=O; inactive

---

# Test protocol: CEETOX_H295R_PROG: CeeTox H295R High-throughput Steroidogenesis Assay for Progesterone (PROG) (AID 2283442)
# Details: actives raise or lower the signal
The source made the active and inactive calls. How the source made its calls: active means hit-call score of the fitted dose curve at least 0.9, where 1 is the maximum; inactive means score below 0.9.
Outcomes: active, inactive

1. O=C(O)Cn1c(=O)n(Cc2ccc(Br)cc2F)c(=O)c2ccc(Cl)cc21; active
2. Oc1ccc2ccccc2c1; inactive
3. OC12N=C(c3ccccc3)SC1Cc1cc(Cl)ccc12 (stereo not drawn); inactive
4. CCCCCCCCCCCC[N+](C)(C)C; inactive
5. Clc1ccccc1C(c1ccccc1)(c1ccccc1)n1ccnc1; active
6. Cc1ccc2oc(CN(Cc3ccccc3)C(=O)Nc3c(F)cc(F)cc3F)c(-c3ccc(Cl)cc3)c2c1; active
7. CN1C(=O)N(c2ccccc2Br)Cc2cnc(Nc3ccc4c(c3)OCC(CO)O4)nc21 (stereo not drawn); active
8. NC(=O)c1nc(-c2cccc(-c3cc(F)ccc3OCC(F)(F)C(F)(F)F)c2)n[nH]1; inactive

---

# Test protocol: CCTE_Harrill_HTTr_Viability_MCF7: CCTE's 6-hour Cell Viability Assessment for the High-Throughput Transcriptomics (HTTr) Platform, in MCF-7 cells cultured in DMEM + 10% fetal bovine serum, Harrill Lab (AID 2284010)
The source made the active and inactive calls. Rule for the calls: active = hit-call score of the fitted dose curve at least 0.9, where 1 is the maximum; inactive = score below 0.9.
Outcomes: t = active, f = inactive

1) COCC(C)OCC(C)OCC(C)O (stereo not drawn); f
2) Cc1cccc2ccccc12; f
3) CC(C)(c1cc(Br)c(O)c(Br)c1)c1cc(Br)c(O)c(Br)c1; f
4) COc1cccc([C@H](O)C2CCN(CCc3ccc(F)cc3)CC2)c1OC; f
5) O=c1[nH]sc2ccccc12; f
6) CN1C(=O)CC[C@H]1c1cccnc1; f
7) CCO[Si](CCCNC(N)=O)(OCC)OCC; f
8) CCCCCCCCCCCC[N+](C)(C)C; f
9) OCCO; f
10) O=c1ccc2ccccc2o1; f
11) Cc1oc2c(NC(=O)c3c(Cl)cccc3Cl)cccc2c1C(C)(C)O; f
12) Cc1occc1C(=O)Nc1ccc(C(=O)N2CCC(F)(F)/C(=C\C(=O)N3CCC(N4CCCCC4)CC3)c3ccccc32)cc1; f
13) CN(C[C@@H](CC[N+]12CCC(C3CCCCC3)(CC1)CC2)c1ccc(Cl)c(Cl)c1)C(=O)c1cc(C(F)(F)F)cc(C(F)(F)F)c1; t
14) Cc1cn([C@H]2C[C@H](N=[N+]=[N-])[C@@H](CO)O2)c(=O)[nH]c1=O; f
15) CCCOC(=O)c1cc(O)c(O)c(O)c1; f
16) CCN(CC)C(=O)c1cc(S(=O)(=O)Cc2ccccc2)c(N2CCC(c3ccccc3)CC2)cc1N(CC)CCN(C)C; f
17) O=C(OCCCCCCOC(=O)c1ccccc1)c1ccccc1; f
18) CCCCCCCCCC(=O)O; f

---

# Read-out: Interleukin 6 Receptor (IL6R), IL6R (gene 3570)
# Test protocol: LTEA_HepaRG_IL6R: Life Technologies and Expression Analysis (LTEA) Assay for Interleukin 6 Receptor (IL6R) using HepaRG (AID 2283510)
# Details: mRNA level, 48 h; actives raise or lower the signal
Activity calls are given as the source filed them. Rule for the calls: active = hit-call score of the fitted dose curve at least 0.9, where 1 is the maximum; inactive = score below 0.9.
Outcomes: 1.0 for active, 0.0 for inactive

1. CCCCCCCCCC(=O)O; 0.0
2. CN1C(=O)CC[C@H]1c1cccnc1; 0.0
3. NC(=O)c1nc(-c2cccc(-c3cc(F)ccc3OCC(F)(F)C(F)(F)F)c2)n[nH]1; 0.0
4. CCCCCCCCOc1ccc(C(=O)c2ccccc2)c(O)c1; 0.0
5. COCC(C)OCC(C)OCC(C)O (configuration not stated); 0.0
6. COc1cccc([C@H](O)C2CCN(CCc3ccc(F)cc3)CC2)c1OC; 0.0
7. O=C(O)Cc1cc(I)c(Oc2ccc(O)c(I)c2)c(I)c1; 1.0
8. O=C1c2ccccc2C(=O)N1CCc1noc(-c2ccc(CN3CCCCCC3)s2)n1; 0.0
9. Cc1ccc(C(C)C)cc1; 0.0
10. O=c1ccc2ccccc2o1; 0.0
11. O=C(O)c1ccccc1-n1cc(C(=O)O)c(=O)c2cc(Nc3c(F)cc(F)cc3Cl)c(Cl)cc21; 0.0
12. CCCCCCCCCCCC[N+](C)(C)C; 0.0

---

# Measured on: Cellular tumor antigen p53 (Homo sapiens) (UniProt P04637)
# Sequence (P04637 whole entry, looked up): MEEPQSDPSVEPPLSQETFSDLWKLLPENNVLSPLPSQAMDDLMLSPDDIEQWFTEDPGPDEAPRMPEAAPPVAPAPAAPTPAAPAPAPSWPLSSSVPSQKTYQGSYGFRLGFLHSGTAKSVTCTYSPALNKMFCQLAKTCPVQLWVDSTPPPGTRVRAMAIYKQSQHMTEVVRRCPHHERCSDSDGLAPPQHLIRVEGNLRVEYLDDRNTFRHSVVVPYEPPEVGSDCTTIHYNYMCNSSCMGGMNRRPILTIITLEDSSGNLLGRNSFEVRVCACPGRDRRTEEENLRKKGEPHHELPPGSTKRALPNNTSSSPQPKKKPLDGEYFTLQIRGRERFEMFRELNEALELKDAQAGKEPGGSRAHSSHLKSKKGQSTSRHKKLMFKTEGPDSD
# Test protocol: TOX21_p53_BLA_p4_ratio: Tox21 HCT-116 p53 Agonism Beta-lactamase Assay, Ratio, Phase 4 (AID 2283601)
# Procedure: TOX21_p53_BLA_p4 is a cell-based, single-readout assay that uses HCT116, a human intestinal cell line, […] in a 1536-well plate.TOX21_p53_BLA_p4_ratio is an assay readout measuring reporter gene via receptor activity and designed using inducible reporter (beta lactamase induction) detected with GAL4 b-lactamase reporter gene. […] This assay endpoint, TOX21_p53_BLA_p4_ratio, was analyzed in the positive analysis fitting direction relative to DMSO as the negative control and baseline of activity. […]
Inconclusive results are not listed. The source made the active and inactive calls. Rule for the calls: active = hit-call score of the fitted dose curve at least 0.9, where 1 is the maximum; inconclusive = response in the unintended direction; inactive = score below 0.9.
Outcomes: t = active, f = inactive

1. NCc1cccc(C2CCN(C(=O)c3ccc(C#Cc4ccccc4F)o3)CC2)c1; t
2. O=C=NCCCCCCN=C=O; f
3. O=c1ccc2ccccc2o1; f
4. CCN(Cc1cccnc1)C(=O)c1cccc(Cl)c1[C@]1(C)C(=O)N(Cc2ccc(OC)cc2OC)c2ccc(Cl)cc21; t
5. c1ccc(C[n+]2cccc3ccccc32)cc1; f
6. Cc1cn([C@H]2C[C@H](N=[N+]=[N-])[C@@H](CO)O2)c(=O)[nH]c1=O; f

---

# Test protocol: APR_HepG2_p53Act_24hr: Apredica 24-hour HepG2 Assay for p53 Activation (AID 2282913);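 also: p53 protein immunofluorescence averaged per cell in HepG2 with Hoechst nuclei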
# Details: high-content imaging, actives raise or lower the signal
Activity calls are given as the source filed them. Rule for the calls: active = hit-call score of the fitted dose curve at least 0.9, where 1 is the maximum; inactive = score below 0.9.
Outcomes: active, inactive

1) Clc1ccccc1C(c1ccccc1)(c1ccccc1)n1ccnc1; inactive
2) CC(C)(C)c1csc(-c2cc3cc(OCc4ccccc4CC(=O)O)ccc3o2)n1; inactive
3) O=C(O)c1ccccc1C(=O)OCc1ccccc1; inactive
4) Cc1ccc(C(C)C)cc1; inactive
5) CCCOC(=O)c1cc(O)c(O)c(O)c1; active
6) Cc1cc(F)ccc1-c1cc(N2CC[C@@H](O)[C@H]2CO)ncc1N(C)C(=O)C(C)(C)c1cc(C(F)(F)F)cc(C(F)(F)F)c1; active
7) CC[C@H](NC(=O)c1cc(F)ccc1NS(=O)(=O)c1cccc2cccnc12)c1ccccc1; inactive
8) CCCCCCCCN(C)CCCCCCCC; inactive
9) COc1ccc2cc(S(=O)(=O)N[C@H](CC(=O)N[C@H](Cc3ccc(CN4[C@H](C)CCC[C@@H]4C)cc3)C(=O)N(C)C(C)C)c3ccc4c(c3)OCO4)ccc2c1; active
10) CC(C)(O)c1ccc(CNC(=O)c2cccnc2Oc2ccc3nonc3c2)cc1; inactive
11) CCCCCCCCCCCCO; inactive

Reference for the values: PubChem BioAssay (EPA / NIEHS)
